- Substrate: PET
- experiment: Proxy for plastic degradation [Released monomer concentration (HPLC/LC-MS) (TPA)]
- conditionSummary: pH 9
Proxy for plastic degradation: recorded values
Express it in nM; write the number only.

Q. Note Proxy for plastic degradation for the protein shown: unnamed (protein) NPYARGPNPTAASLEASAGPFTVRSFTVSRPSGYGAGTVYYPTNAGGTVGAIAIVPGYTARQSSIKWWGPRLASHGFVVITIDTNSTLDQPSSRSSQQMAALRQVASLNGTSSSPIYGKVDTARMGVMGWAMGGGGSLISAANNPSLKAAAPQAPWDSSTNFSSVTVPTLIFACENASIAPVNSSALPIYDSMSRNAKQFLEINGGSASCANSGNSNQALIGKKGVAWMKRFMDNDTRYSTFACENPNSTRVSDFRTANCS
A. 0

Q. Note Proxy for plastic degradation for the protein shown: unnamed (protein) NPYARGPNPTAASLEASAGPFTVRSFTVSRPSGYGAGTVYYPTNAGGTVGAIAIVPGYTARQSSIKWWGPRLASHGFVVITIDTNSTLDQPSSRSSQQMAALRQVASLNGTSSSPIYGKVDTARMGVMGWSMGGGGSLISAANNPSLKAAAPQAPWDSSTNFSSVTVPTLIFACENDSIAPVNSSALPIYDSMSRNAKQFLEINGGSHSAANSGNSNQALIGKKGVAWMKRFMDNDTRYSTFACENPNSTRVSDFRTANCS
A. 0

Q. Note Proxy for plastic degradation for the protein shown: unnamed (protein) NPYARGPNPTAASLEASAGPFTVRSFTVSRPSGYGAGTVYYPTNAGGTVGAIAIVPGFTARQSSIKWWGPRLASHGFVVITIDTNSTLDQPSSRSSQQMAALRQVASLNGTSSSPIYGKVDTARMGVMGWSMGGGGSLISAANNPSLKAAAPQAPWDSSTNFSSVTVPTLIFACENDSIAPVNSSALPIYDSMSRNAKQFLEINGGSHSCANSGNSNQALIGKKGVAWMKRFMDNDTRYSTFACENPNSTRVSDFRTANCS
A. 0
